system: U251 CNS; test: NCI-60 one-dose screen, 48 h (100 = growth as untreated, 0 = no growth, -100 = all killed); conditions: 10 µM unless noted
About 83,000 compounds went through this panel and 20% of them were active in at least one assay; those are over-represented in the sample as a whole. The source made the active and inactive calls. How the source made its calls: active means growth percent below 10; inactive means the rest.
value.type: growth

Which measured growth belongs to O=C(NOC1OC(CO)C(O)C(O)C1O)Nc1ccccc1 (stereo not given) , tested on U251 CNS?
102% (inactive)

API: value(readout= growth, system= U251 CNS, query= O=C(NCCNc1nccc(-c2c(-c3cccc(O)c3)nc3sccn23)n1)c1ccccc1 )
61.9% (inactive)

Give the reported growth for Cc1cn(-c2nc3c(c(NCc4ccccc4)n2)COCC3)c2cccc(C(N)=O)c12 (system: U251 CNS).
93.5% [0.5 µM] (inactive)

API: value(readout= growth, system= U251 CNS, query= O=C1OC(c2ccc(-c3ccccc3)cc2)=C/C1=C/C=C/c1ccccc1 )
100% (inactive)

API: value(readout= growth, system= U251 CNS, query= Cc1c(Cl)ccc2c(C(=O)Cl)cc(-c3ccccc3)nc12 )
96.6% (inactive)

###

System: DU-145 prostate
Assay: NCI-60 one-dose screen, 48 h
Details: 10 µM unless noted
Experimental: Cells are grown in 96 well plates and exposed to the test compound for 48 hours. Compounds are tested at a single concentration, which is 10^-5 M for most compounds. The reported endpoint is percent growth (GI% or GIPRCNT), where numbers from 0 - 100% represent growth inhibition, and numbers from -100% - 0 represent cell death. For example, a value of 40 represents 60% growth inhibition. A value of 0 means no net growth occurred over the course of the experiment. […]
Compounds without any hit were thinned out: in the full panel of roughly 83,000, 20% have a hit. Activity calls are given as the source filed them. Rule for the calls: active = growth percent below 10; inactive = the rest.
The reply should name one outcome from 1 (yes) (active), 0 (no) (inactive)

I'd appreciate the recorded outcome for CCCN1C(=O)CSC1=Nc1ccc2cc3ccc(N=C4SCC(=O)N4CCC)cc3nc2c1 from this test.
0 (no)

// outcome(item) with item = Nc1nc(=S)ss1
0 (no)

Tell me the assay call for O=[N+]([O-])c1ccccc1NC1c2ccccc2Oc2ccccc21 please.
0 (no)

Which outcome was assigned to Cc1ccc(N(CC2=NCCN2)c2cccc(O)c2)cc1 in this test?
0 (no)

Any idea what this test logged for CCn1c(C)nc([N+](=O)[O-])c1Sc1nc(N)nc2nc[nH]c12 ?
0 (no)

What outcome does the record of this test show for CC(C)[C@@H]1NC(=O)[C@]2(C)CSC(=N2)c2ccnc(c2)CNC(=O)C[C@@H](/C=C/CCS)OC1=O ?
0 (no)

Assay outcome for CC(C)CNCC(=O)Nc1ccc(Cc2ccc(NC(=O)CNCC(C)C)cc2)cc1 : what was it?
0 (no)

Could you check what this test reported for NC(=S)NNC1CCCCC1 ?
0 (no)

Test call, this compound: CCOC(=O)C(C)(CSSCC(C)(NC(=O)c1ccc2ccccc2c1)C(=O)OCC)NC(=O)c1ccc2ccccc2c1 (stereo unspecified)
0 (no)

Per the assay record, what outcome was assigned to COc1ccc(/C=C/C(=O)c2ccc(NC(=O)CSc3nnc(-c4cc(OC)c(OC)c(OC)c4)o3)cc2)cc1 ?
1 (yes)

Please share the test call associated with CCCCC(=O)Nc1nc2ccc(SCCC)cc2s1 .
0 (no)
